# system-tested: Isdop2 (Ixodes scapularis, UniProt A0ACM8DGL0)
# Sequence (A0ACM8DGL0 entry or part of it): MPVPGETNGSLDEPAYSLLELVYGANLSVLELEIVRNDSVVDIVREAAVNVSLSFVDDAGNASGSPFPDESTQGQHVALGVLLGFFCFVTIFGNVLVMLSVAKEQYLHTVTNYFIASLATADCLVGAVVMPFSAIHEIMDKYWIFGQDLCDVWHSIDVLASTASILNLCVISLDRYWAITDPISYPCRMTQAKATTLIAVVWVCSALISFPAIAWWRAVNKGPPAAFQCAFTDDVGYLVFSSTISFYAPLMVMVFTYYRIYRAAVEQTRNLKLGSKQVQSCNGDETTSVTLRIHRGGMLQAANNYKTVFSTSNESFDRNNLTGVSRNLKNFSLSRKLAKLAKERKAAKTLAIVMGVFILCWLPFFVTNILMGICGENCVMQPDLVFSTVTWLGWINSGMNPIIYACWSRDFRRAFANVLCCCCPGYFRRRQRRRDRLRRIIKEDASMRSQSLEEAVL
# test-method-notes: cell-based
# experimental-setup: read-out: % Inhibition (of response to dopamine), Isdop2 screen
Counter-ions that a name gives are not always drawn.
Each entry below carries its reported inhibition at 10 µM.

Q: Consider the compound shown here: "OCCN1CCN(CCCN2c3ccccc3Sc3ccc(Cl)cc32)CC1" What is its recorded inhibition at 10 µM?
Result: 76%

Q: Given "CC[C@H](CO)Nc1nc(NCc2ccccc2)c2ncn(C(C)C)c2n1" , state its recorded inhibition at 10 µM.
Result: 91%

Q: Which inhibition at 10 µM value is on record for "O=c1cc(-c2ccc(O)cc2)oc2cc(O)cc(O)c12" ?
Result: 98%

Q: Item CC[C@H]1CN2CCc3cc(OC)c(OC)cc3[C@@H]2C[C@@H]1C[C@H]1NCCc2cc(OC)c(OC)cc21 [Emetine dihydrochloride hydrate] has what recorded inhibition at 10 µM?
Result: 100%

Q: Quick one: inhibition at 10 µM of "CC(=O)[C@]1(O)Cc2c(O)c3c(c(O)c2[C@@H](O[C@H]2C[C@H](N)[C@H](O)[C@H](C)O2)C1)C(=O)c1ccccc1C3=O" ?
Result: 97%

Q: Look up inhibition at 10 µM for this compound: "CNCCC=C1c2ccccc2CCc2ccccc21"
Result: 79%

Q: What inhibition at 10 µM value was documented for this compound, CN1CCc2cc(Cl)c(O)cc2C(c2ccccc2)C1 (centres unmarked) ?
Result: 77%

Q: Look up inhibition at 10 µM: "CN1CCc2ccccc2Cc2[nH]c3ccccc3c2CC1"
Result: 100%

====

Entries and their measured % Mortality 72 hrs follow.
# Test system: adult male Blatella germanica
# test-method-notes: Cockroach contact assay (topical application)
# Type: in vivo
# experimental-setup: 200 mM compound
Your answer is read as %, so omit the unit and give the number.

The cases that follow already have their % Mortality 72 hrs on record.
COC(=O)N(C(=O)N1CO[C@@]2(C(=O)OC)Cc3cc(Cl)ccc3C2=N1)c1ccc(OC(F)(F)F)cc1 : 70
CN(C)CCC=C1c2ccccc2CCc2ccccc21 : 25
CCNC(=O)N1CCN(CCCC(c2ccc(F)cc2)c2ccc(F)cc2)CC1 [Amperozide] : 0
CN(C)CCCN1c2ccccc2Sc2ccc(Cl)cc21 : 10
OCCN1CCN(CC/C=C2/c3ccccc3Sc3ccc(C(F)(F)F)cc32)CC1 [cis-(Z)-Flupenthixol] : 10

Okay, now this molecule:
Q: Could you tell me which % Mortality 72 hrs is on file for CN1CC2c3ccccc3Oc3ccc(Cl)cc3C2C1 (stereo not drawn) ?
Result: 10

====

Property: log10 EC50; scope: individual molecules
# system-tested: AaDOP1 (Aedes aegypti)
# Sequence (H6D5H1 entry or part of it): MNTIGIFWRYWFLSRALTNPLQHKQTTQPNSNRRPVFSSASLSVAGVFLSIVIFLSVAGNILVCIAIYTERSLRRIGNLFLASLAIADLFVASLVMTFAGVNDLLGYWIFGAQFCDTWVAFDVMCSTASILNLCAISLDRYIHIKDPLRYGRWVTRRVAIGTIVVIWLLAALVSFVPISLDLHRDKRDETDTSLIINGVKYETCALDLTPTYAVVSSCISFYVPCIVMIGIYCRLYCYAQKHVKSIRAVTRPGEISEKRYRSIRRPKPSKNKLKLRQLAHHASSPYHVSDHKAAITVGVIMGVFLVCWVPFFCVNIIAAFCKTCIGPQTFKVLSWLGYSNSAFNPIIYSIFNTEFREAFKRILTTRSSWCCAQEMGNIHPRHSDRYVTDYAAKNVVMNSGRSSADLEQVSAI
# test-method-notes: CRELuc reporter dose-response in HEK293 cells stably expressing AaDOP1
# Assay type: cell-based
# experimental-setup: HEK293 cells stably expressing CRELuc reporter and AaDOP1
Note the log scale: values are log10 of EC50 expressed in nM.

NC[C@H](O)c1ccc(O)c(O)c1 [Norepinephrine] : 2.88
Oc1cc2c(cc1O)C(c1ccccc1)CNCC2 (centres unmarked) : 2.49
Oc1cc2c(cc1O)[C@H]1c3ccccc3CN[C@@H]1CC2 (racemic) [Dihydrexidine] : 0.84
NCCc1ccc(O)c(O)c1 : 0.49

// next entry
Q: Given the entry Oc1cc2c(c(Cl)c1O)CCNCC2c1ccccc1 (centres unmarked) , report its measured log10 EC50.
Result: 1.38

====

# system-tested: Isdop1 (Ixodes scapularis, UniProt A0ACM8FJJ0)
# test-method-notes: cAMP accumulation in HEK 293 cells transiently expressing Isdop1
# Format: cell-based
# experimental-setup: 10 μM biogenic amine, 300 nM propranolol, cAMP accumulation, mean±standard error
Measured Stimulatory response (fold-over-basal) Isdop1 by item
Your answer should be a number followed by the unit of measure.

Answered examples (2):
NCCc1c[nH]cn1 : 1.02 ± 0.10 fold-over-basal
NC[C@H](O)c1ccc(O)c(O)c1 [Norepinephrine] : 1.46 ± 0.10 fold-over-basal

Q: State the recorded Stimulatory response (fold-over-basal) Isdop1 for this entry: NCCc1c[nH]c2ccc(O)cc12 [Serotonin, 5-hydroxytryptamine]
Result: 1.06 ± 0.08 fold-over-basal

Q: Look up Stimulatory response (fold-over-basal) Isdop1 for this molecule: NCC(O)c1ccc(O)cc1 (racemic)
Result: 1.01 ± 0.07 fold-over-basal

Q: Please look up its Stimulatory response (fold-over-basal) Isdop1: "NCCc1ccc(O)cc1"
Result: 1.34 ± 0.11 fold-over-basal

====

# system-tested: UniProt H6D5H2
# test-method-notes: LOPAC1280 antagonist screen in HEK-CRELuc-Aadop2 cells
# Format: cell-based
Counter-ions that a name gives are not always drawn.
Recorded % of the SCH23390 effect for the following compounds
Report only the number, with the unit % understood.

Worked cases, % of the SCH23390 effect given:
CC[C@H]1CN2CCc3cc(OC)c(OC)cc3[C@@H]2C[C@@H]1C[C@H]1NCCc2cc(OC)c(OC)cc21 [Emetine dihydrochloride hydrate] : 86
CN(C)CCCN1c2ccccc2Sc2ccccc21 : 88
CN1CCc2ccccc2Cc2[nH]c3ccccc3c2CC1 : 99
CN(C)CCCN1c2ccccc2Sc2ccc(C(F)(F)F)cc21 : 88
CC1(C)C(=O)N(CCN2CCC(C(=O)c3ccc(F)cc3)CC2)c2ccccc21.Cl : 81

Q: If you can, please state the reported % of the SCH23390 effect value of CCCCCCCCCCCCCC(=O)O[C@@H]1[C@@H](C)[C@@]2(O)[C@@H](C=C(CO)C[C@]3(O)C(=O)C(C)=C[C@@H]23)[C@@H]2C(C)(C)[C@]12OC(C)=O [Phorbol 12-myristate 13-acetate] .
Result: 88

Q: Report % of the SCH23390 effect for "CNCCCC1c2ccccc2C=Cc2ccccc21" please.
Result: 82

Q: Can you share its % of the SCH23390 effect? I mean this compound: "CN1CCN(CC/C=C2/c3ccccc3Sc3ccc(S(=O)(=O)N(C)C)cc32)CC1"
Result: 86

Q: Value lookup for % of the SCH23390 effect; key = "CC(=O)[C@]1(O)Cc2c(O)c3c(c(O)c2[C@@H](O[C@H]2C[C@H](N)[C@H](O)[C@H](C)O2)C1)C(=O)c1ccccc1C3=O"
Result: 83

====

# System: adult male Blatella germanica
# test-method-notes: Cockroach contact assay (topical application)
# Format: in vivo
# experimental-setup: 200 mM compound
# Text: A series of whole organism bioassays was developed to further evaluate the toxicity of chemistries to a range of agricultural, veterinary and public health pests and non-target insects (Tables 12 and 13). These assays are designed to rapidly explore the biological activity spectrum of chemistries as well as to facilitate initial investigations of the mode of action of insecticidal compounds. […] Lead chemistries identified in our in vivo screen have been evaluated in the cockroach and termite assays.
% Mortality 240 hrs listing for selected compounds.
The response must be a number in % with no trailing unit.

Field: example entries. Status: answers known.
CCNC(=O)N1CCN(CCCC(c2ccc(F)cc2)c2ccc(F)cc2)CC1 [Amperozide] : 5
OCCN1CCN(CC/C=C2/c3ccccc3Sc3ccc(C(F)(F)F)cc32)CC1 [cis-(Z)-Flupenthixol] : 20
CN(C)CCCN1c2ccccc2Sc2ccc(Cl)cc21 : 17
CN(C)CCC=C1c2ccccc2CCc2ccccc21 : 35
CN1CC2c3ccccc3Oc3ccc(Cl)cc3C2C1 (stereo not drawn) : 10

Now let's try a different one.
Q: Look up % Mortality 240 hrs for this compound: "COC(=O)N(C(=O)N1CO[C@@]2(C(=O)OC)Cc3cc(Cl)ccc3C2=N1)c1ccc(OC(F)(F)F)cc1"
Result: 100

====

# system-tested: AaDOP2 (Aedes aegypti, UniProt H6D5H2)
# Sequence (H6D5H2 entry or part of it): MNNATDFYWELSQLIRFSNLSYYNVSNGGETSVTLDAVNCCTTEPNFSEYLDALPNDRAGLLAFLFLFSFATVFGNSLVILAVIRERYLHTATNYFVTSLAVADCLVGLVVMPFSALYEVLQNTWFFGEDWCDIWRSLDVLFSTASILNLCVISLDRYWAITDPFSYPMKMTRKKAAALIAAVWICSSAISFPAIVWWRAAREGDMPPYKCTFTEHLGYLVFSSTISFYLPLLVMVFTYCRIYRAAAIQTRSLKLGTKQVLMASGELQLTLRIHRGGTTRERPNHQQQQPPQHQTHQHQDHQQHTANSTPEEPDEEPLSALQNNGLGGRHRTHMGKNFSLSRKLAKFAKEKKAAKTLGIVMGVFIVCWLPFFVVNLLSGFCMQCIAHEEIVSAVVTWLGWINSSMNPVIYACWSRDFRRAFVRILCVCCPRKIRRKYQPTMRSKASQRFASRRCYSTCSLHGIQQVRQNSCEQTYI
# test-method-notes: HTRF cAMP accumulation concentration response assay (Cisbio Dynamic 2)
# Type: cell-based
# experimental-setup: in vitro Concentration Response Curve assay, n = 2, relative to control antagonist Amitriptyline; read-out: Avg IC50
Structures can show the parent of a compound that is named as a salt.
The entries below come with measured pIC50 values attached.
Note: pIC50 values are expressed as the negative base-10 logarithm of concentration in M.

Here is how some compounds turned out for pIC50.
CN1CCc2c(c3ccccc3n2Cc2ccccc2)C1 : 5.71
CC1CCC(C(C)C)C(OC(=O)C(=O)c2ccccc2)C1 (centres unmarked) : 4.49
CCC(=O)Nc1ccc(Nc2nc(C)cc(Nc3ccccc3)n2)cc1 : 5.32
COc1ccc(Nc2cc(C)nc(Nc3ccc(NC(=O)CC(C)(C)C)cc3)n2)cc1 : 5.04

Q: Recorded pIC50 of "OCCN1CCN(c2nc(Nc3ccccc3)c3cnn(-c4ccccc4)c3n2)CC1" , please.
Result: 5.93

Q: Which pIC50 reading was recorded for the compound "CCCC(=O)Nc1ccc(Nc2nc(C)cc(Nc3ccccc3)n2)cc1" ?
Result: 5.22

Q: // returns reported pIC50 for input CCCN1C[C@H](CSC)C[C@@H]2c3cccc4[nH]cc(c34)C[C@H]21 [Pergolide Mesylate, methanesulfonate salt]
Result: 6.15

Q: Look up pIC50: "OCCN1CCN(c2nc(Nc3cccc(F)c3)c3cnn(-c4ccccc4)c3n2)CC1"
Result: 5.83

Q: Fill in: pIC50 of "CCCCC(=O)Nc1ccc(Nc2nc(C)cc(Nc3ccccc3)n2)cc1" is ___
Result: 5.23

Q: For the compound "COc1ccc2[nH]cc(CCNC(=O)C(=O)c3c(-c4ccccc4)n(C)c4ccccc34)c2c1" , what pIC50 is on record?
Result: 4.75
